- target_of_assay: human farnesyl pyrophosphate synthase (FPPS) (Homo sapiens, UniProt P14324)
- Sequence (P14324 67-419 limits assumed): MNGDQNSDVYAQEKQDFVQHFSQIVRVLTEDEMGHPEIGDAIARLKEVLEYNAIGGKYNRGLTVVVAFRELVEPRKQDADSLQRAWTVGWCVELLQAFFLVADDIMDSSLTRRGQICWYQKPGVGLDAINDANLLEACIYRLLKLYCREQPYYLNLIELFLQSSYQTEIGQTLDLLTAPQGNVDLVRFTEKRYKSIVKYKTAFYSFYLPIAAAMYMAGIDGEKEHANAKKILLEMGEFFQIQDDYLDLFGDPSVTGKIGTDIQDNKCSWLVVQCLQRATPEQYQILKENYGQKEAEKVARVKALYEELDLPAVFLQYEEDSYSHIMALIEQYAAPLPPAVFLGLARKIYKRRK
- experiment: FPPS inhibition
- experimental_conditions: recombinant human FPPS; after pre-incubation
# label 1 = IC50 below 40 nM (exclusive); label 0 = IC50 at/above 40 nM

Check out these entries, answers already filled in.
smiles_string	cat
Cc1ccc2ncc(CC(P(=O)(O)O)P(=O)(O)O)n2c1	label 0
O=P(O)(O)C(F)(Cc1cnc2ccccn12)P(=O)(O)O	label 1
O=P(O)(O)C(Cc1cnc2c(O)cccn12)P(=O)(O)O	label 0
O=P(O)(O)C(Cc1cnc2ccc(F)cn12)P(=O)(O)O	label 0

Query: Hello, I'm reviewing records and need to know if IC50 of `CCc1nc2ccccn2c1CC(P(=O)(O)O)P(=O)(O)O` is below 40 nM. Could you check?
Result: label 1

Query: Hello, I'm reviewing records and need to know if IC50 of `O=P(O)(O)C(Cc1cnc2ccccn12)P(=O)(O)O` is below 40 nM. Could you check?
Result: label 1

Query: Hello, I'm reviewing records and need to know if IC50 of `Cc1ccn2c(CC(F)(P(=O)(O)O)P(=O)(O)O)cnc2c1` is below 40 nM. Could you check?
Result: label 0

Where these numbers come from: patent US8618079B2
